Each entry below lists one item and its recorded IC50 value.
target: LSD1 (Homo sapiens, UniProt O60341); assay: Biochemical assay for LSD1 activity (LSD1 demethylase TR-FRET); conditions: Table 7; biotinylated H3K4me1 peptide, 50 minutes at room temperature, TR-FRET; read-out: LSD1_Pep_TR-FRET_1.0 (IC50 T50)
Structures can show the parent of a compound that is named as a salt.
Property Measured: IC50

CC/C(=C\c1ccccc1)[C@@H]1C[C@H]1NC1CC2(CCN(CCC(=O)O)CC2)C1 (racemic) [Compound 225, Bis Trifluoroacetate]    < 100 nM
CC/C(=C\c1ccccc1)[C@@H]1C[C@H]1NC1CC2(C1)CN(Cc1cnc(C(=O)O)cn1)C2 (single isomer, unassigned)    < 100 nM
CC/C(=C\c1ccccc1)[C@@H]1C[C@H]1NC1CC2(CCN(Cc3ccc(C(=O)O)cc3)CC2)C1 (racemic) [Compound 227, dihydrochloride]    < 100 nM

====

target: LSD1 (Homo sapiens, UniProt O60341); assay: Biochemical assay for LSD1 activity (LSD1 demethylase TR-FRET); details: Table 6; biotinylated H3K4me1 peptide, 50 minutes at room temperature, TR-FRET; read-out: LSD1_Pep_TR-FRET_1.0 (IC50 T50)
pIC50: −log10 of the molar value. Counter-ions that a name gives are not always drawn.
Property Measured: pIC50

CC(C)/C(=C\c1ccccc1)[C@@H]1C[C@H]1NC1CCN(Cc2ccc(C(=O)O)cc2)CC1 (racemic) [Compound 179, bis(trifluoroacetic Acid) Salt]    > 7.00
COCCNC1CCC(N[C@@H]2C[C@H]2/C(C)=C/c2ccccc2)CC1 (single isomer, unassigned) [Compound 143, bis(trifluoroacetic acid salt)]    > 7.00
CC/C(=C\c1ccccc1)[C@@H]1C[C@H]1NC1CCC(NCc2cnn(CC(=O)O)c2)CC1 (mixture of isomers) [Compound 210, Dihydrochloride]    6.00 to 7.00

====

Reported IC50 values are given for each entry in this list.
molecular target: LSD1 (Homo sapiens); assay: Biochemical assay for LSD1 activity (LSD1 demethylase TR-FRET); conditions: Table 7; biotinylated H3K4me1 peptide, 50 minutes at room temperature, TR-FRET; read-out: LSD1_Pep_TR-FRET_1.0 (IC50 T50)
Where a name gives a salt, the structure may show the parent alone.
Property Measured: IC50

CC/C(=C\c1ccccc1)[C@@H]1C[C@H]1NC1CC2(C1)CN(Cc1ccc(C(=O)O)cc1)C2 (racemic) [Compound 226, bis trifluoroacetate]    < 100 nM
CC/C(=C\c1ccccc1)[C@@H]1C[C@H]1N[C@H]1CC[C@H](NCc2ccc(C(=O)O)nc2)CC1 (single isomer, unassigned) [Compound 260]    < 100 nM
CC/C(=C\c1ccccc1)[C@@H]1C[C@H]1NC1CC2(C1)CN(CCC(=O)O)C2 (racemic) [Compound 230]    < 100 nM
CC/C(=C\c1ccccc1)[C@@H]1C[C@H]1NC[C@H]1CC[C@H](NCc2ccc(C(=O)O)cc2)CC1 (racemic) [Compound 245, Bis Trifluoroacetate]    < 100 nM
CC/C(=C\c1ccccc1)[C@@H]1C[C@H]1NC1CC2(C1)CN(Cc1ccc(-c3nnn[nH]3)cc1)C2 (single isomer, unassigned) [Compound 252]    < 100 nM
CC/C(=C\c1ccccc1)[C@@H]1C[C@H]1NCCC(C)(C)N (racemic) [Compound 240]    < 100 nM

====

target: UniProt:O60341; test: Biochemical assay for LSD1 activity (LSD1 demethylase TR-FRET); settings: Table 6; biotinylated H3K4me1 peptide, 50 minutes at room temperature, TR-FRET; read-out: LSD1_Pep_TR-FRET_1.0 (IC50 T50)
pIC50: −log10 of the molar value. Structures can show the parent of a compound that is named as a salt.
Property Measured: pIC50

C/C(=C\c1ccccc1)[C@@H]1C[C@H]1NC1CCN(CCNS(C)(=O)=O)CC1 (racemic) [Compound 205, Dihydrochloride]    > 7.00
CC/C(=C\c1ccccc1)[C@@H]1C[C@H]1N[C@H]1CC[C@H](NCCCC(=O)O)CC1 (relative stereo) [Compound 180, bis(trifluoroacetic Acid) Salt]    > 7.00
C/C(=C\c1ccccc1)[C@@H]1C[C@H]1NC1CCN(CCC(=O)O)CC1 (racemic) [Compound 199, Dihydrochloride]    > 7.00
CC/C(=C\c1ccccc1)[C@@H]1C[C@H]1N[C@H]1CC[C@H](NCc2ccc(C(=O)O)cc2)CC1 (racemic) [Compound 218, Dihydrochloride]    > 7.00
C/C(=C\c1ccccc1)[C@@H]1C[C@H]1N[C@H]1CC[C@@H](NCCCC(=O)O)CC1 (racemic) [Compound 165, bis(trifluoroacetic Acid) Salt]    > 7.00
COc1ccc(/C=C(\C)[C@@H]2C[C@H]2N)cc1 [compound 130, 2,2,2-trifluoroacetate]    5.00 to 6.00

====

target: LSD1 (Homo sapiens, UniProt O60341); experiment: Biochemical assay for LSD1 activity (LSD1 demethylase TR-FRET)
pIC50: −log10 of the molar value. Where a name gives a salt, the structure may show the parent alone.
Property Measured: pIC50

CC(=Cc1ccc(C#N)cc1)C1CC1N (stereo not shown) [Compound 129, Hydrochloride]    < 5.00

====

The following compounds are shown together with reported IC50 values.
biological target: LSD1 (Homo sapiens, UniProt O60341); assay: Biochemical assay for LSD1 activity (LSD1 demethylase TR-FRET); details: Table 6; biotinylated H3K4me1 peptide, 50 minutes at room temperature, TR-FRET; read-out: LSD1_Pep_TR-FRET_1.0 (IC50 T50)
Structures can show the parent of a compound that is named as a salt.
Property Measured: IC50

C/C(=C\c1ccccc1)[C@@H]1C[C@H]1NC1CCN(CCC(=O)N(C)C)CC1 (racemic) [Compound 198, Dihydrochloride]    < 100 nM
CC/C(=C\c1ccccc1)[C@@H]1C[C@H]1NC1CCC(NCc2ccc(C(=O)O)nc2)CC1 (mixture of isomers)    < 100 nM
C/C(=C\c1ccccc1)[C@@H]1C[C@H]1N[C@H]1CC[C@@H](NCCC(N)=O)CC1 (single isomer, unassigned) [Compound 152, bis(trifluoroacetic acid) salt]    < 100 nM
CC/C(=C\c1ccccc1)[C@@H]1C[C@H]1N[C@H]1CC[C@H](NCC(C)(C)C#N)CC1 (single isomer, unassigned) [Compound 157, bis(trifluoroacetic acid salt)]    < 100 nM
C/C(=C\c1ccccc1)[C@@H]1C[C@H]1NC1CCN(CCOCC(=O)O)CC1 (racemic) [Compound 204, Dihydrochloride]    > 10000 nM
C/C(=C\c1ccccc1)[C@@H]1C[C@H]1NC1CCN(Cc2ccc(C(=O)O)cc2)CC1    100 to 1000 nM
C/C(=C\c1ccccc1)[C@@H]1C[C@H]1NC1CCN(Cc2ccc(C(=O)O)nc2)CC1 (racemic) [Compound 200, Dihydrochloride]    < 100 nM
C/C(=C\c1ccccc1)[C@@H]1C[C@H]1NC1CCN(Cc2ccc(C(=O)O)cn2)CC1 (racemic) [Compound 203, Dihydrochloride]    < 100 nM
CC/C(=C\c1ccccc1)[C@@H]1C[C@H]1N[C@H]1CC[C@H](NCC(=O)O)CC1 (racemic)    < 100 nM
COCC/C(=C\c1ccccc1)[C@@H]1C[C@H]1NC1CCC(NCc2ccc(C(=O)O)nc2)CC1 (mixture of isomers) [Compound 185, bis(trifluoroacetic Acid) Salt]    < 100 nM
C/C(=C\c1ccccc1)[C@@H]1C[C@H]1NC1CCN(CC(=O)O)CC1 (racemic) [Compound 194, Dihydrochloride]    < 100 nM
C/C(=C\c1ccccc1)[C@@H]1C[C@H]1N[C@H]1CC[C@H](NCc2ccc(C(=O)O)cc2)CC1 (single isomer, unassigned) [Compound 150, bis(trifluoroacetic acid) salt]    < 100 nM
CC/C(=C\c1ccccc1)[C@@H]1C[C@H]1N[C@H]1CC[C@@H](NCC(=O)O)CC1 (racemic)    < 100 nM
CC/C(=C\c1ccccc1)[C@@H]1C[C@H]1N[C@H]1CC[C@H](NCC2(C(=O)O)CC2)CC1 (racemic)    < 100 nM
CC(=Cc1ccc(C#N)cc1)C1CC1N[C@H]1CC[C@@H](N)CC1 (relative stereo) [Compound 131, Dihydrochloride]    > 10000 nM
C/C(=C\c1ccccc1)[C@@H]1C[C@H]1N[C@H]1CC[C@H](NCCC#N)CC1 (single isomer, unassigned) [Compound 155, bis(trifluoroacetic acid) salt]    < 100 nM
C/C(=C\c1ccccc1)[C@@H]1C[C@H]1N[C@H]1CC[C@@H](NCCC#N)CC1 (single isomer, unassigned) [Compound 156, bis(trifluoroacetic acid) salt]    < 100 nM
C/C(=C\c1ccccc1)[C@@H]1C[C@H]1NC1CCN(CCc2ccc(C(=O)O)cc2)CC1 (racemic) [Compound 206, Dihydrochloride]    100 to 1000 nM
CC/C(=C\c1ccccc1)[C@@H]1C[C@H]1N[C@H]1CC[C@H](NCc2c(OC)cc(C)[nH]c2=O)CC1 (single isomer, unassigned) [Compound 160, bis(trifluoroacetic acid salt)]    < 100 nM
CC(C)/C(=C\c1ccccc1)[C@H]1C[C@@H]1N[C@H]1CC[C@H](N)CC1 (racemic) [Compound 178, Dihydrochloride]    < 100 nM
C/C(=C\c1ccccc1)[C@@H]1C[C@H]1N[C@H]1CC[C@@H](NCC(C)(C)C(=O)O)CC1 (single isomer, unassigned) [Compound 149, bis(trifluoroacetic acid) salt]    < 100 nM
C/C(=C\c1ccccc1)[C@@H]1C[C@H]1N[C@H]1CC[C@H](NCCC(N)=O)CC1 (single isomer, unassigned) [Compound 151, bis(trifluoroacetic acid) salt]    < 100 nM
CC/C(=C\c1ccccc1)[C@@H]1C[C@H]1N[C@H]1CC[C@@H](N(C)CCC(=O)O)CC1 (racemic) [Compound 213, Dihydrochloride]    100 to 1000 nM
